Target: Serine/threonine-protein kinase Sgk1 (Homo sapiens);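 also: mean percent inhibition of SGK1, from the GSK PKIS screening panel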
Conditions: at 1 µM
Recorded inhibition values for a group of molecules are listed next.
measure-name: inhibition (%)

[
  {
    "smiles-structure": "CN1CCC(n2cnc(-c3ccc(F)cc3)c2-c2ccnc(N)n2)CC1",
    "val": 5.81
  },
  {
    "smiles-structure": "CS(=O)(=O)CCNCc1coc(-c2ccc3ncnc(Nc4ccc(OCc5ccccc5)cc4)c3c2)c1",
    "val": 2.35
  },
  {
    "smiles-structure": "Fc1cccc(COc2ccc(Nc3ncnc4sc(-c5ccco5)cc34)cc2Cl)c1",
    "val": 3.04
  },
  {
    "smiles-structure": "NC(=O)c1sc(-n2cnc3ccc(C(F)(F)F)cc32)cc1OCc1ccccc1Br",
    "val": 4.04
  },
  {
    "smiles-structure": "Cc1ccc(O)cc1Nc1ccnc2cc(-c3ccccn3)ccc12",
    "val": 0.75
  },
  {
    "smiles-structure": "COc1ccc(-c2cc3c(N)ncnc3o2)cc1",
    "val": -0.33
  },
  {
    "smiles-structure": "O=S(=O)(CCNCc1ccc(-c2ccc3ncnc(Nc4ccc(OCc5cccc(F)c5)c(Cl)c4)c3c2)o1)c1ccccc1",
    "val": 4.02
  },
  {
    "smiles-structure": "CC(=O)Nc1cccc(C#Cc2cncnc2Nc2ccc(OCc3cccc(F)c3)c(Cl)c2)c1",
    "val": 2.43
  },
  {
    "smiles-structure": "COc1cc2ncn(-c3cc(OCc4ccccc4C(F)(F)F)c(C(=O)N(C)C)s3)c2cc1OC",
    "val": 1.02
  },
  {
    "smiles-structure": "O=C(Nc1n[nH]c2cc(-c3ccc(F)cc3)ccc12)C1CC1",
    "val": 3.89
  },
  {
    "smiles-structure": "Nc1nc(-c2cccc(Cl)c2)c(-c2ccc3ncccc3n2)s1",
    "val": 5.86
  },
  {
    "smiles-structure": "CCn1c(-c2nonc2N)nc2c(C#CC(C)(C)O)ncc(OC3CCNCC3)c21",
    "val": 4.36
  },
  {
    "smiles-structure": "CC(C)COC(=O)c1ccc2c(c1)/C(=C/Nc1ccc(S(N)(=O)=O)cc1)C(=O)N2",
    "val": 19
  },
  {
    "smiles-structure": "Clc1ccc(-c2nn3ncccc3c2-c2ccnc(Nc3ccccc3)n2)cc1",
    "val": 1.09
  },
  {
    "smiles-structure": "CCCN(CCS(C)(=O)=O)Cc1ccc(-c2ccc3ncnc(Nc4ccc(OCc5cccc(F)c5)c(Cl)c4)c3c2)o1",
    "val": 2.15
  },
  {
    "smiles-structure": "Fc1ccc(-c2nn3ccccc3c2-c2ccncc2)cc1",
    "val": 3.23
  },
  {
    "smiles-structure": "COc1cc(Nc2nccc(Nc3ccc4c(C)n[nH]c4c3)n2)cc(OC)c1OC",
    "val": 5.3
  },
  {
    "smiles-structure": "COc1cccc(-n2ncc3c(N/N=C/c4ccc(F)cc4)ncnc32)c1",
    "val": 5.6
  },
  {
    "smiles-structure": "CCN(CC)S(=O)(=O)c1ccc(OC)c(Nc2ncc(-c3ccccc3)o2)c1",
    "val": 3.29
  },
  {
    "smiles-structure": "[O-][S+]1CCN(Cc2ccc(-c3ccc4ncnc(Nc5ccc(OCc6cccc(F)c6)c(Cl)c5)c4c3)o2)CC1",
    "val": 4
  }
]
